Source listed as patent US6506928B1.

Assay: physchem
Conditions: pH 10, aqueous buffer
value_type: solubility

# compound, observed
measured = [
    ("O=CCCC(CCC(=O)O)(CCC(=O)O)NC(=O)CCC(CCC(=O)NC(CCC(=O)O)(CCC(=O)O)CCC(=O)O)(CCC(=O)NC(CCC(=O)O)(CCC(=O)O)CCC(=O)O)NC(=O)CCCOC(=O)C1(C(=O)OCCCC(=O)NC(CCC(=O)NC(CCC(=O)O)(CCC(=O)O)CCC(=O)O)(CCC(=O)NC(CCC(=O)O)(CCC(=O)O)CCC(=O)O)CCC(=O)NC(CCC(=O)O)(CCC(=O)O)CCC(=O)O)C2c3cc4c5c6c(cc7ccc8cc9c%10c%11c(cc(c%12c3c5c(c%12%11)c3c6c7c8c%103)C21)C9)C4 (stereo not shown) [compound 1]", "~250 mg/mL"),
]
